Study Target: MDR1 (P-gp) (Homo sapiens (Human), UniProt P08183)
Measurement Notes: MDR1-MDCK effective efflux assay
Condition Label: dog, MDCK-MDR1
Reported Metric: Papp (×10⁻⁶ cm/s)
Supply the numeric figure in ×10⁻⁶ cm/s, leaving out any unit text.

Measured Papp of Cc1nc(Nc2ncc(C(=O)Nc3c(CF)csc3Cl)s2)cc(N2CCN(C)C(C)C2)n1 (racemic) : 4

Measured Papp of Cc1nc(Nc2ncc(C(=O)Nc3c(CF)csc3Cl)s2)cc(N2CCCN(C)CC2)n1 : 3

Measured Papp of Cc1nc(Nc2ncc(C(=O)Nc3c(CF)csc3Cl)s2)cc(N2CCN(C)CC2)n1 : 5

Measured Papp of Cc1nc(Nc2ncc(C(=O)Nc3c(C(F)F)csc3Cl)s2)cc(N2CCN(CCO)CC2)n1 : 3

Measured Papp of Cc1nc(Nc2ncc(C(=O)Nc3c(CF)csc3Cl)s2)cc(N2CCN(CCO)CC2)n1 : 2

----------
System: MC38 murine tumour cell line
Measurement Notes: TNF-sensitised cell viability assay (CellTiter-Glo)
Condition Label: Mus musculus, MC-38, read-out: MC38 IC50 (at 100 ng/mL rMuTNF)
Kindly state IC50 for each of the entries shown.

Measured IC50 of Cc1nc(Nc2ncc(C(=O)Nc3c(CF)csc3Cl)s2)cc(N2CCN(C)CC2)n1 : < 100 nM

Measured IC50 of Cc1nc(Nc2ncc(C(=O)Nc3c(C)csc3Cl)s2)cc(N2CCN(CCO)CC2)n1 : < 200 nM

Measured IC50 of Cc1nc(Nc2ncc(C(=O)Nc3c(CF)csc3Cl)s2)cc(N2CCN(C)C(C)C2)n1 (racemic) : < 100 nM

Measured IC50 of Cc1nc(Nc2ncc(C(=O)Nc3c(C(F)F)csc3Cl)s2)cc(N2CCN(CCO)CC2)n1 : < 100 nM

Measured IC50 of Cc1nc(Nc2ncc(C(=O)Nc3c(C(F)F)csc3Cl)s2)cc(N2CCN(C)C(C)C2)n1 (racemic) : < 100 nM

----------
Measurement Notes: Full pharmacokinetic study in mice
Condition Label: male, CD1, mouse, plasma, iv, 1 mg/kg
Reported Metric: half-life (min)
Supply the numeric figure in min, leaving out any unit text.

Measured half-life of Cc1nc(Nc2ncc(C(=O)Nc3c(Cl)ccnc3C)s2)cc(N2CCN(CCO)CC2)n1 : 12

----------
Kindly state Papp for each of the entries shown.
Measurement Notes: in vitro
Condition Label: dog, MDCK, MDCK-wild type cells, Mean Papp A > B (10^−6 cm/s)
Supply the numeric figure in ×10⁻⁶ cm/s, leaving out any unit text.

Measured Papp of Cc1nc(Nc2ncc(C(=O)Nc3c(C)cccc3Cl)s2)cc(N2CCN(CCO)CC2)n1 : 21

Measured Papp of Cc1nc(Nc2ncc(C(=O)Nc3c(Cl)ccnc3C)s2)cc(N2CCN(CCO)CC2)n1 : 6.8

Measured Papp of Cc1nc(Nc2ncc(C(=O)Nc3c(C)csc3Cl)s2)cc(N2CCN(CCO)CC2)n1 : 9

----------
Kindly state pIC50 for each of the entries shown.
Study Target: ABL1 wt (Homo sapiens (Human), UniProt P00519)
Sequence (P00519 118-535 limits assumed): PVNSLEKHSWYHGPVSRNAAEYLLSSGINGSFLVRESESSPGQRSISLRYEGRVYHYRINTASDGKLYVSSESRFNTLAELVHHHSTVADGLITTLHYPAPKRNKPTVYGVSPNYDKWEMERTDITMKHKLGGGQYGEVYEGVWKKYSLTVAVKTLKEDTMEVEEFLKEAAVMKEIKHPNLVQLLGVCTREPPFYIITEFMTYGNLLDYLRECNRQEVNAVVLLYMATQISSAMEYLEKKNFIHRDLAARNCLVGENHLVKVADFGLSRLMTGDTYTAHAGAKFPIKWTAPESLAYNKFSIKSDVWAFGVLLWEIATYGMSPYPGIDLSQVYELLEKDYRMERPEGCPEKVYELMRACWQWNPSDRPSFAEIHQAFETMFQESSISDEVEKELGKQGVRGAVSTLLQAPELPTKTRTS
Assay type: biochemical
Convention used: pIC50 is expressed as -log10 of the molar concentration.

So the reported pIC50 for Cc1nc(Nc2ncc(C(=O)Nc3c(Cl)ccnc3C)s2)cc(N2CCN(C)CC2)n1 [Compound C10] , on ABL1 wt (Homo sapiens (Human), UniProt P00519), turned out to be 8.37

So the reported pIC50 for Cc1nc(Nc2ncc(C(=O)Nc3c(C)noc3C)s2)cc(N2CCN(CCO)CC2)n1 [Compound C9] , on ABL1 wt (Homo sapiens (Human), UniProt P00519), turned out to be 7.56

----------
Kindly state Papp for each of the entries shown.
Measurement Notes: in vitro
Condition Label: dog, MDCK, MDCK-wild type cells, Mean Papp B > B (10^−6 cm/s)
Supply the numeric figure in ×10⁻⁶ cm/s, leaving out any unit text.

Measured Papp of Cc1nc(Nc2ncc(C(=O)Nc3c(C)cccc3Cl)s2)cc(N2CCN(CCO)CC2)n1 : 49

Measured Papp of Cc1nc(Nc2ncc(C(=O)Nc3c(Cl)ccnc3C)s2)cc(N2CCN(CCO)CC2)n1 : 20

----------
Study Target: SIK2 (Homo sapiens (Human), UniProt Q9H0K1)
Condition Label: read-out: SIK2 IC50
Kindly state IC50 for each of the entries shown.
Remember to quote the unit after the number.

Measured IC50 of Cc1nc(Nc2ncc(C(=O)Nc3c(Cl)ccnc3C)s2)cc(N2CCN(C)CC2)n1 : 138 nM

Measured IC50 of Cc1nc(Nc2ncc(C(=O)Nc3c(C)noc3C)s2)cc(N2CCN(CCO)CC2)n1 : 232 nM

----------
Measurement Notes: Mouse hepatocyte stability
Type: in vitro ADME
Condition Label: hepatocytes, read-out: Mouse hepatocyte stability, Intrinsic clearance
Reported Metric: microsomal CLint (µL/min/mg)
Supply the numeric figure in µL/min/mg, leaving out any unit text.

Measured microsomal CLint of Cc1nc(Nc2ncc(C(=O)Nc3c(CF)csc3Cl)s2)cc(N2CCN(C)CC2)n1 [Compound E9] : 21

Measured microsomal CLint of Cc1nc(Nc2ncc(C(=O)Nc3c(CF)csc3Cl)s2)cc(N2CCCN(C)CC2)n1 [Compound E11] : 25

Measured microsomal CLint of Cc1nc(Nc2ncc(C(=O)Nc3c(CF)csc3Cl)s2)cc(N2CCN(CCO)CC2)n1 [Compound E3] : 22

Measured microsomal CLint of Cc1nc(Nc2ncc(C(=O)Nc3c(CF)csc3Cl)s2)cc(N2CCN(C)C(C)C2)n1 (racemic) [Compound E10] : 18

Measured microsomal CLint of Cc1nc(Nc2ncc(C(=O)Nc3c(C(F)F)csc3Cl)s2)cc(N2CCN(CCO)CC2)n1 [Compound E4] : 18

Measured microsomal CLint of Cc1nc(Nc2ncc(C(=O)Nc3c(C)csc3Cl)s2)cc(N2CCN(CCO)CC2)n1 [Compound C7] : 28

----------
Measurement Notes: in vitro
Condition Label: mouse, microsomes
Kindly state half-life for each of the entries shown.

Measured half-life of Cc1nc(Nc2ncc(C(=O)Nc3c(C)csc3Cl)s2)cc(N2CCN(CCO)CC2)n1 : 13 min

Measured half-life of Cc1nc(Nc2ncc(C(=O)Nc3c(C(F)F)csc3Cl)s2)cc(N2CCN(CCO)CC2)n1 : 20 min

Measured half-life of Cc1nc(Nc2ncc(C(=O)Nc3c(Cl)ccnc3C)s2)cc(N2CCN(CCO)CC2)n1 : 62 min

Measured half-life of Cc1nc(Nc2ncc(C(=O)Nc3c(CF)csc3Cl)s2)cc(N2CCN(C)C(C)C2)n1 (racemic) : 14 min

Measured half-life of Cc1nc(Nc2ncc(C(=O)Nc3c(CF)csc3Cl)s2)cc(N2CCCN(C)CC2)n1 : 21 min

Measured half-life of Cc1nc(Nc2ncc(C(=O)Nc3c(C)nn(C)c3C)s2)cc(N2CCN(CCO)CC2)n1 : > 100 min

Measured half-life of Cc1nc(Nc2ncc(C(=O)Nc3c(CF)csc3Cl)s2)cc(N2CCN(C)CC2)n1 : 9 min

Measured half-life of Cc1nc(Nc2ncc(C(=O)Nc3c(CF)csc3Cl)s2)cc(N2CCN(CCO)CC2)n1 : 18 min

Measured half-life of Cc1nc(Nc2ncc(C(=O)Nc3c(C)cncc3Cl)s2)cc(N2CCN(CCO)CC2)n1 : 37 min

----------
Measurement Notes: Human plasma-protein binding
Condition Label: Table 5A
Kindly state Human plasma-protein binding, Percentage unbound (%) for each of the entries shown.
Supply the numeric figure in %, leaving out any unit text.

Measured Human plasma-protein binding, Percentage unbound (%) of Cc1nc(Nc2ncc(C(=O)Nc3c(C)cncc3Cl)s2)cc(N2CCN(CCO)CC2)n1 [Compound C4] : 2

Measured Human plasma-protein binding, Percentage unbound (%) of Cc1nc(Nc2ncc(C(=O)Nc3c(C)noc3C)s2)cc(N2CCN(CCO)CC2)n1 [Compound C9] : 6

Measured Human plasma-protein binding, Percentage unbound (%) of Cc1nc(Nc2ncc(C(=O)Nc3c(Cl)ccnc3C)s2)cc(N2CCN(CCO)CC2)n1 [Compound B3] : 7

Measured Human plasma-protein binding, Percentage unbound (%) of Cc1nc(Nc2ncc(C(=O)Nc3c(C)nn(C)c3C)s2)cc(N2CCN(CCO)CC2)n1 [Compound C8] : 5

----------
Measurement Notes: in vivo
Condition Label: male, CD1, mouse, po, 30 mg/kg
Kindly state Cmax for each of the entries shown.
Supply the numeric figure in ng/mL, leaving out any unit text.

Measured Cmax of Cc1nc(Nc2ncc(C(=O)Nc3c(C)csc3Cl)s2)cc(N2CCN(CCO)CC2)n1 [Compound C7] : 474

Measured Cmax of Cc1nc(Nc2ncc(C(=O)Nc3c(C(F)F)csc3Cl)s2)cc(N2CCN(CCO)CC2)n1 [Compound E4] : 1240

Measured Cmax of Cc1nc(Nc2ncc(C(=O)Nc3c(CF)csc3Cl)s2)cc(N2CCN(C)CC2)n1 [Compound E9] : 2690

Measured Cmax of Cc1nc(Nc2ncc(C(=O)Nc3c(CF)csc3Cl)s2)cc(N2CCN(C)C(C)C2)n1 (racemic) [Compound E10] : 2040
